test system: TK-10 renal; experiment: NCI tumour cell line growth inhibition, 48 h
assay metric: TGI

molecule	assayed target	TGI
CC1(C)CC[C@]2(C(=O)O)CC[C@]3(C)C(=CC[C@@H]4[C@@]5(C)C[C@H](O)[C@H](O)[C@@](C)(C(=O)O)[C@@H]5CC[C@]43C)[C@@H]2C1	TK-10 renal	> 100 µM
COc1cc(O)c2c(c1)O[C@@H]1OCC[C@H]21	TK-10 renal	> 100 µM
COc1cc2oc(-c3ccc4c(c3)OCO4)c(OC)c(=O)c2c(OC)c1O	TK-10 renal	> 100 µM
CCN1C(=O)N(CC)C2C1NN=c1s/c(=C\c3ccco3)c(=O)n12 (stereo unspecified)	TK-10 renal	> 100 µM
O=C(CCCN1CCC2(CC1)CC(=O)N(N1CCOCC1)C2=O)c1ccc(F)cc1	TK-10 renal	> 100 µM
CCC(O)C1Cc2c(C)cc3c(c2O1)C(=O)c1ccccc1C3=O (stereo unspecified)	TK-10 renal	> 100 µM
OCCCNc1ccnc2cc(Cl)ccc12	TK-10 renal	> 100 µM
COc1ccc2cc(C(=O)/C=C/c3ccc(N(C)C)cc3)ccc2c1	TK-10 renal	> 100 µM
CC(=O)O[C@@H]1C(=O)N(c2ccccc2)[C@@H]1c1cc2ccccc2c2ccccc12	TK-10 renal	> 100 µM
O=C(NCc1cccnc1)C1COc2cc(-c3cc(=O)c4ccccc4o3)ccc2O1 (stereo unspecified)	TK-10 renal	> 83.4 µM

Please state TGI for every molecule in the list that follows.
1. N#Cc1c(N2CCOCC2)nc(=S)[nH]c1-c1ccccc1
2. CN(C)CCCNc1ncnc2c1ncn2C1OC(CO)C(O)C1O (stereo unspecified)

1: > 100 µM; 2: > 100 µM

Please state TGI for every molecule in the list that follows.
1. Cc1cc(C)n(-c2ccnc3cc(Cl)ccc23)n1
2. CCSc1cc2c(cc1O)CC[C@@H]1[C@@H]2CC[C@]2(C)[C@@H](O)CC[C@@H]12

1. > 100 µM
2. 62.3 µM

Please state TGI for every molecule in the list that follows.
1. C[C@@H](NC(=O)/C(C#N)=C/c1ccc([N+](=O)[O-])cc1)c1ccccc1
2. COc1cc2c(cc1OCCCOS(C)(=O)=O)N=C[C@@H]1CCCN1C2=O

1. 12.1 µM
2. > 100 µM
